Assay text: NCI Yeast Anticancer Drug Screen. Data for the rad50EPP+ strain (AID 151);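 also: 0% = growth of vehicle-treated control cultures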
Test context: S. cerevisiae rad50 mutant strain, at 1.2 µM, hits give high values
Compounds without any hit were thinned out: in the full panel of roughly 79,000, 15% have a hit.
Assign growth inhibition to each entry below.
The reply should be a number in %, with the unit left off.

Using the record for `c1ccc2c(c1)ccc1c3ccncc3ccc21` , report its growth inhibition.
35

Which growth inhibition reading was recorded for the compound `Cc1cc(Cl)ccc1NC(=O)/C(Cl)=C1/Sc2ccccc2NC1=O` ?
1

Record request: growth inhibition value, item `ClCCn1c(CCl)nc2ccc(Cl)cc21`
-12

Param item = `CN(N=O)C(=O)N[C@@H](C=O)[C@@H](O)[C@H](O)[C@H](O)CO` ; retrieve measured growth inhibition.
0

Please look up its growth inhibition: CC(=O)C1=C(O)C2(C)c3c(O)c(C)c(O)c(C(C)=O)c3OC2(Sc2ccccc2)CC1=O (stereo not drawn)
23

Please report the recorded growth inhibition for `COc1ccc(S(=O)(=O)N/N=C\c2cc([N+](=O)[O-])cc(I)c2O)c(OC)c1OC` .
-5

Value lookup for growth inhibition; key = `Cn1ncc2cc3c(Nc4ccc(Cl)cc4)cccc3nc21`
0

Need growth inhibition, item `Nc1ccc2c(c1)sc1ccccc12`
1

Reported growth inhibition, compound `COc1ccc(/C(C#N)=C/c2ccc(OC)c(OC)c2)cc1` : ____
-17

Requested field: growth inhibition. Item: O=S1(=O)c2ccccc2N=C(c2ccccc2Cl)CC1c1ccc(F)cc1 (stereo not drawn)
-23

# get_value(readout='growth inhibition', item= `CCN1/C(=C/c2ccc3ccccc3[n+]2CC)C=Cc2ccccc21` )
4

Record request: growth inhibition value, item `CN(C)c1ccc(N=Nc2ccccn2)cc1`
-88

growth inhibition for `Cc1ccc(CNc2ccc(Br)cc2)cc1` ?
-10

// lookup growth inhibition for `CCOC(=O)C1=C(C)NC(C)=C(C(=O)OCC)C1c1ccccc1Cl`
-5

State the recorded growth inhibition for this entry: `NC(N)=N/N=C/c1cc(Cl)cc(Cl)c1O`
19

Given the compound `O=C1c2ccccc2C(=O)c2cc(S(=O)(=O)Nc3ccccc3)ccc21` , what is its reported growth inhibition?
9

Request the reported growth inhibition associated with `COc1ccc(N)c2c1C(=O)c1ccccc1C2=O`
9

What growth inhibition value was documented for this compound, `C=C(C)[C@@H]1CCc2c(O)c(O)c(=O)cc(C)c2C1` ?
-3

Value lookup for growth inhibition; key = `COc1cc(NCc2ccc3nc(N)nc(N)c3c2C)cc(OC)c1OC`
-5

Can you share its growth inhibition? I mean this compound: Cc1cc(O)c2c(c1O)C(=O)C13C(=C2O)C(=O)C2C(O)C1C1C(O)C3C(=O)C3=C(O)c4c(O)cc(C)c(O)c4C(=O)C321 (stereo not drawn)
4

I would be grateful if you could share the reported growth inhibition for `CN(C)CCN1C(=O)c2cccc3cc([N+](=O)[O-])cc(c23)C1=O` .
13

Item under review: O=C1OC2C(O)COC2(OCc2c[nH]c3ccccc23)C1O (stereo not drawn) (tested in a mixture with another compound) . Reported growth inhibition?
-5

Consider the compound `COC(=O)/C=C1/OC(c2ccc(Br)cc2)=C(Br)C1=O` and give its measured growth inhibition.
-6

Given `Cc1c(-c2ccccc2)[nH]c2ccccc12` , state its recorded growth inhibition.
-2

So what's the measured growth inhibition for this one? `Nc1nc(N)c2cc(Sc3ccc4ccccc4c3)ccc2n1`
17

I have this compound here, `CCCCCCCCN1C(=O)c2ccccc2C1=O` , and I need its recorded growth inhibition.
2

Item under review: `O=NN(CCCl)C(=O)NCCCl` . Reported growth inhibition?
-3

Look up growth inhibition: `CN=C(N)N/N=C(\C)c1ccc2oc3ccc(/C(C)=N/NC(N)=NC)cc3c2c1`
-17

Given the entry `O=C(O)c1ccccc1.[Ag]` , report its measured growth inhibition.
94

Query: growth inhibition; subject: `CCc1[nH]nc(C(N)=O)c1N=NN(C)C`
0

Param item = `Cc1cc(N=C2C=CC(=[N+](C)C)C=C2)c(N)cc1N` ; retrieve measured growth inhibition.
-8

Fill in: growth inhibition of CCN(CC)CC(O)c1cc(-c2ccc(Cl)cc2)nc2c(-c3ccccc3)cccc12 (stereo not drawn) is ___
-1

So what does the record say about growth inhibition for NP1(Oc2ccc(F)cc2)=NP(N)(Oc2ccc(F)cc2)=NP(Oc2ccc(F)cc2)(Oc2ccc(F)cc2)=N1 (stereo not drawn) ?
-6

Which growth inhibition value belongs to `COc1ccc(/C=C2\SC(=S)N(C=C3C(=O)NC(=S)NC3=O)C2=O)cc1OC` ?
0

Entry under review: `CN(CC(=O)O)c1ccc(/C=C/c2ccnc3ccccc23)cc1` . Reported growth inhibition?
-9

Please look up its growth inhibition: `Cc1nc2c(ncn2CCO)c(=O)[nH]1`
-11

Find the recorded growth inhibition belonging to `OCCNCCOc1ccc(/C(=C(/Cl)c2ccccc2)c2ccccc2)cc1` and report it.
-34

Value lookup for growth inhibition; key = `C=Cc1cnc([N+](=O)[O-])n1C`
-1
